For each of the compounds below, state its pIC50.
targetSystem: KRAS G12D (Homo sapiens (Human), UniProt P01116+P62937, G12D)
Sequence (P01116-2 other isoform, or with tags, fused parts or gaps G12D): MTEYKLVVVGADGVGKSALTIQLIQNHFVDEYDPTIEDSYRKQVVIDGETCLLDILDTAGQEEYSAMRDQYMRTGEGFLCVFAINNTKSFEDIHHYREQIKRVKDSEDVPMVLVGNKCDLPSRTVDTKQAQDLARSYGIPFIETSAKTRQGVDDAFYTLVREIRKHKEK
Sequence (P62937 whole entry): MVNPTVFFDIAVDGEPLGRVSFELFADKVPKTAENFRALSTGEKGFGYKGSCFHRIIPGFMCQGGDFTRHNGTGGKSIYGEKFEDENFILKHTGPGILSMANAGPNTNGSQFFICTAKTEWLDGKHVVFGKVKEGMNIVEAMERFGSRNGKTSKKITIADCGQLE
experimentalDetails: Ras-Raf (BRAF RBD) disruption / FRET / MOA assay, KRAS G12D
Assay type: biochemical
details: Ras-Raf disruption/FRET/MOA assay; class symbols; read-out: KRAS G12D FRET data IC50
pIC50: −log10 of the molar value.

Exercise: Output measured pIC50 for this item: CCn1c(-c2cncnc2)c2c3cc(ccc31)-c1cccc(c1)C[C@H](NC(=O)[C@H](C(C)C)N(C)C(=O)[C@H]1CCN(C(=O)C#CCN(C)C)C1)C(=O)N1CCC[C@H](N1)C(=O)OCC(C)(C)C2
Key: 5.00 to 6.00

Exercise: Output measured pIC50 for this item: CCn1c(-c2ccccc2COC)c2c3cc(ccc31)-c1cc(O)cc(c1)C[C@H](NC(=O)[C@H](C(C)C)N(C)C(=O)[C@H]1CCN(C(=O)/C=C/CN(C)C)C1)C(=O)N1CCC[C@H](N1)C(=O)OCC(C)(C)C2
Key: 5.00 to 6.00

Exercise: Output measured pIC50 for this item: CCn1c(-c2cccnc2COC)c2c3cc(ccc31)-c1cc(C)cc(c1)C[C@H](NC(=O)[C@H](C(C)C)N(C)C(=O)[C@H]1CCN(C(=O)C#CCN(C)C)C1)C(=O)N1CCC[C@H](N1)C(=O)OCC(C)(C)C2 [Example A156]
Key: 5.00 to 6.00

Exercise: Output measured pIC50 for this item: C=CC(=O)N1CC[C@](F)(C(=O)N(C)[C@H](C(=O)N[C@H]2Cc3cccc(c3)-c3ccc4c(c3)c(c(-c3cccnc3[C@H](C)OC)n4CC)CC(C)(C)COC(=O)[C@@H]3CCCN(N3)C2=O)C(C)C)C1 (atropisomer, axis not shown)
Key: 5.00 to 6.00

Exercise: Output measured pIC50 for this item: C=CC(=O)N1CC[C@](C#N)(C(=O)N(C)[C@H](C(=O)N[C@H]2Cc3cccc(c3)-c3ccc4c(c3)c(c(-c3cccnc3[C@H](C)OC)n4CC)CC(C)(C)COC(=O)[C@@H]3CCCN(N3)C2=O)C(C)C)C1 (atropisomer, axis not shown)
Key: 5.00 to 6.00

Exercise: Output measured pIC50 for this item: C=CC(=O)N1CC[C@H](C(=O)N(C)[C@H](C(=O)N[C@H]2Cc3cc(O)cc(c3)-c3ccc4c(c3)c(c(-c3c(C)cccc3C)n4CC)CC(C)(C)COC(=O)[C@@H]3CCCN(N3)C2=O)C(C)C)C1
Key: < 5.00

Exercise: Output measured pIC50 for this item: C=CC(=O)N1CC[C@H](C(=O)N(C)[C@H](C(=O)N[C@H]2Cc3cc(O)cc(c3)-c3cc4c(c(-c5ccccc5CCOC)n(CC)c4cn3)CC(C)(C)COC(=O)[C@@H]3CCCN(N3)C2=O)C(C)C)C1
Key: < 5.00

Exercise: Output measured pIC50 for this item: CO[C@@H](C)c1ncccc1-c1c2c3cc(ccc3n1CC(F)(F)F)-c1csc(n1)C[C@H](NC(=O)CCOC1CN(C(=O)C#CC(C)(C)N(C)C)C1)C(=O)N1CCC[C@H](N1)C(=O)OCC(C)(C)C2 (atropisomer, axis not shown)
Key: 5.00 to 6.00

Exercise: Output measured pIC50 for this item: C=CC(=O)N1CC[C@H](C(=O)N(C)[C@H](C(=O)N(C)[C@H]2Cc3cc(O)cc(c3)-c3ccc4c(c3)c(c(-c3cccnc3COC)n4CC)CC(C)(C)COC(=O)[C@@H]3CCCN(N3)C2=O)C(C)C)C1
Key: < 5.00

Exercise: Output measured pIC50 for this item: C=CC(=O)N1CC[C@H](C(=O)N(C)[C@H](C(=O)N[C@H]2Cc3cc(O)cc(c3)-c3ccc4c(c3)c(c(-c3cc(CN(C)C)nn3C)n4CC)CC(C)(C)COC(=O)[C@@H]3CCCN(N3)C2=O)C(C)C)C1
Key: < 5.00

Exercise: Output measured pIC50 for this item: C=CC(=O)N(C)[C@@H]1C[C@H]1N(C)C(=O)N(C)[C@H](C(=O)N[C@H]1Cc2nc(cs2)-c2ccc3c(c2)c(c(-c2cccnc2[C@H](C)OC)n3CC)CC(C)(C)COC(=O)[C@@H]2CCCN(N2)C1=O)C(C)C (atropisomer, axis not shown)
Key: 5.00 to 6.00

Exercise: Output measured pIC50 for this item: C=CC(=O)N1CC[C@H](C(=O)N(C)[C@H](C(=O)N[C@H]2Cc3cc(O)cc(c3)-c3ccc4c(c3)c(c(-c3ccc(N5CCN(C)CC5)nc3)n4CC)CC(C)(C)COC(=O)[C@@H]3CCCN(N3)C2=O)C(C)C)C1
Key: < 5.00

Exercise: Output measured pIC50 for this item: C=CC(=O)N(C)CCC1CCN(C(=O)N(C)[C@H](C(=O)N[C@H]2Cc3nc(cs3)-c3ccc4c(c3)c(c(-c3cccnc3[C@H](C)OC)n4CC)CC(C)(C)COC(=O)[C@@H]3CCCN(N3)C2=O)C(C)C)CC1 (atropisomer, axis not shown)
Key: 6.00 to 7.00

Exercise: Output measured pIC50 for this item: C=CC(=O)N1CC(OC[C@H](C(=O)N[C@H]2Cc3nc(cs3)-c3ccc4c(c3)c(c(-c3cccnc3[C@H](C)OC)n4CC)CC(C)(C)COC(=O)[C@@H]3CCCN(N3)C2=O)C(C)C)C1 (atropisomer, axis not shown)
Key: < 5.00

Exercise: Output measured pIC50 for this item: C=CC(=O)N1CC[C@H](C(=O)N(C)[C@H](C(=O)N[C@H]2C[C@H]3CN(CCO3)c3ccc4c(c3)c(c(-c3cccnc3[C@H](C)OC)n4CC)CC(C)(C)COC(=O)[C@@H]3CCCN(N3)C2=O)C(C)C)C1 (atropisomer, axis not shown)
Key: < 5.00

Exercise: Output measured pIC50 for this item: C=CC(=O)N1CC[C@H](C(=O)N(C)[C@H](C(=O)N[C@H]2Cc3cccc(c3)-c3ccc4c(c3)c(c(-c3cc(C5=CCN(C)CC5)cnc3[C@H](C)OC)n4CC)CC(C)(C)COC(=O)[C@@H]3CCCN(N3)C2=O)C(C)C)C1 (atropisomer, axis not shown) [Example A513]
Key: 5.00 to 6.00

The reported measurements were obtained from patent US11566007B2.
